Cited source: patent US20230374114A1

Assay Target: D614G Spike (SARS-CoV-2, UniProt P0DTC2 16-1213)
For each record, write down the corresponding pKd.
One number for each entry, as −log10 of the molar value.

INSERT INTO assay_data (binder, reported_property, measured_result) VALUES
  ('Ab 27 (scFv, V domains shown) VH: QVQLVQSGTEVKKPGASVKVSCKASGYSFTGSHLHWVRQAPGQGLEWMGWINPDSGVINYAQKFQGRVTLTRDTSISTAYMELSGLRSDDTAVYYCARDKAIGYVWALDYWGQGTLVTVSS VL: QSALTQPPSVSGSPGQSVTISCTGTSSDVGTYNRVSWYQQPPGKAPKLMIYEVSNRPSGVSNRFSGSKSGNTASLTISGLQAEDEADYYCSSYTRTFTYVFGTGTKVTVL', 'pKd', 11.12);

Turning now to a further record.
Given the entry Ab 28 (scFv, V domains shown) VH: QVTLKESGPGLVNPSETLSLTCTVSGASISNSFWSWIRQSPGKGLEWIGYTSYSGNSIYNPSLKSRLTMSIDTSKNQLSLNLRSLTAADTAVYYCARREWIKGHFDYWGQGTLVTVSS VL: NFMLTQPHSVSESPGKTVTISCTGSGGSIASNYVQWYQQRPGSAPTTVIYEDNQRPSGVPDRFSGSIDSSSNSASLTISGLKTEDEADYYCQSYDSSNPVVFGGGTKLTVL , report its measured pKd. 11.03
